src = patent US20250340659A1

Reported GEO mean OX40L expressing HEK values for a set of binders
# Target: T1, canine OX40L, full length membrane form, expressed on HEK293 cells (canine)
# T1 construct: also called OX40L expressing HEK; HEK OX40L cells
# T1 chain: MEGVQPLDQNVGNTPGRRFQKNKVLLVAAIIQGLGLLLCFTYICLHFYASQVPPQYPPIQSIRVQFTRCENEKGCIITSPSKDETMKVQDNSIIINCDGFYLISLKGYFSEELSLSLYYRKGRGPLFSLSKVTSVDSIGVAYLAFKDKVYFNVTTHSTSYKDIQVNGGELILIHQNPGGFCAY
# Protocol description: flow cytometry

PMX061 (antibody, V domains shown, also called PMX61) VH: EVQLVESGGDLVKPGGSLRLSCVASGFTFSSFPMSWVRQAPGKGLQWVAYINSGGSSTSYADVVKGRFTISRDNAKNTLYLQMNSLRADDTAVYYCARTFPTVATDNWFYYWGQGTLVTVSS VL: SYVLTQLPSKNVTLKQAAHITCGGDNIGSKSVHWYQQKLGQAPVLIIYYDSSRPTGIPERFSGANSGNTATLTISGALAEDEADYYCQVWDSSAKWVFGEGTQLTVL ... 3.29e+06
PMX028 (antibody, V domains shown, also called PMX28) VH: EVQMVESGGDLVKPGGSLRLSCVASGFTFSDYHMSWVRQAPGKGLQWVAYITSGGSSTSYADAVKGRFTISRDNAKNTLYLQMNSLRAEDTAVYYCASDLVLVVGGGVYWGQGTLVTVSS VL: SYELTQPPSVNVTLRETAHITCGGDSIGSKYVQWIQQNPGQAPVVIIYKDSNRPTGIPERFSGANSGNTATLTISGALAEDEADYYCQVGDSGTKAVFGEGTQLTVL ... 1.05e+06
PMX085 (antibody, V domains shown, also called PMX85) VH: EVKLVESGGDLVKPEGSLRLSCVVSGFTFSRYGMSWVRQAPGKGLQWVAYISSDGRSSSYTDAVQGRFTISSDNAKNTLYLQMNSLTTEDTAVYYCAKLGRGFNFNFWGQGTLVTVSS VL: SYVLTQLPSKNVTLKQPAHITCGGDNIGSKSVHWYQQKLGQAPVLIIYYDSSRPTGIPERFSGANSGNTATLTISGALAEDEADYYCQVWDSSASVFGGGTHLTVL ... 839000
PMX025 (antibody, V domains shown, also called PMX25) VH: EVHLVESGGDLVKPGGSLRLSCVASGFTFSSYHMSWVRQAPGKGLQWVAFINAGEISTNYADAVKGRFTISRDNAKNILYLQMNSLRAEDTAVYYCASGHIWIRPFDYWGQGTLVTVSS VL: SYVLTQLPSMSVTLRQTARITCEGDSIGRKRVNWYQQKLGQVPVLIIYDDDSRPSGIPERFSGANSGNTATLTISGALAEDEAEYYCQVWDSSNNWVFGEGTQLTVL ... 2.83e+06
PMX050 (antibody, V domains shown, also called PMX50) VH: EVQLVESGGDLVKPEGSLRLSCVVSGFTFTTYDMSWVRQAPGKGLQWVAYITNDGRITTYTDAVKGRFTISRDNAKNTLYLQMNSLRTVDTGVYYCARHSSSWSRGRFGLDYWGHGTSVFVSS VL: SYVLTQLPSKNVTLKQPAHITCGGDNIGRKGVHWYQQKLGQAPVLIIYYDSSRPTGIPERFSGANSGNTATLTISGALAEDEADYYCQVWDNSASVFGGGTHLTVL ... 3.08e+06
PMX053 (antibody, V domains shown, also called PMX53) VH: EVQLVESGGDLVKPAGSLRLSCVASGFTFSSYSMSWVRQAPEKGLQLVAGINSAGSSTYYTDAVKGRFTISRDNAKNTVYLQMNSLRAEDTAIYYCAKRWVFDYWGQGTLVTVSS VL: DIVMTQTPLSLSVSPGEPASISCKASQSLPHSLGNTYLYWFRQKPGQSPQRLIYKVSNRDPGVPDRFSGSGSGTDFTLRISRVEADDAGIYYCGQGIQDPFTFGQGTKLEIK ... 3.03e+06
PMX109 (antibody, V domains shown) VH: EVQLVESGGDLVRPGGSLRLSCVASGFTFTNYHMSWVRQAPGKGLQWVAFINSGGSSTTYTDVVRGRFTISRDYAKNTLYLQMNSLTAEDTAVYYCASGSIWTHFDHWGQGTLVTVSS VL: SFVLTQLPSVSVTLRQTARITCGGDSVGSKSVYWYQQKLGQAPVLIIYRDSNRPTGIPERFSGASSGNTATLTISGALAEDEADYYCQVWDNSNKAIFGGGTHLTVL ... 633000
PMX154 (antibody, V domains shown) VH: EVQLVESGGDLVKPEGSLRLSCVVSGFTFSGFDMSWVRQAPGKGLQWVAYISTDGRSTGYTDAVKGRFTISRDNVKNTLYLQMNSLRTEDTAVYYCAKETRHWGFDYWGQGTLVIVSS VL: SYVLTQLSSVSVSLRQTAHITCGGDSIGRKNVYWHQQKLGRAPILIIYDDSSRPSGIPERFSGANSGNTATLTISGALAEDEAAYYCQVWDSSTSVFGGGTHLTVL ... 789000

// query Return reported GEO mean OX40L expressing HEK; argument: PMX084 (antibody, V domains shown, also called PMX84) VH: EVQLVESGGDLVKPEGSLRLSCVVSGFTFSNYDMSWVRQAPGKGLQWVAFISNDGRITGYTDAVEGRFTISRDNAKNTLYLQMNSLRTEDTAVYYCAKETSRWGFDYWGQGTLVTVSS VL: SYVLTQLPSVSVTLRQTARITCGGDSIGSKNVYWHQQKLGQAPVLIIYDDSSRPSGIPERFSGANSGNTATLTISGALAEDEADYYCQVWDSSTSVFGGGTHLTVL
// result 622000

// query Return reported GEO mean OX40L expressing HEK; argument: PMX059 (antibody, V domains shown, also called PMX59) VH: EVHLVESGGDLVKPEGSLRLSCVVSGFTFSNYVMNWVRQAPGKGLQWVAFISGDGRSTTYTDAVKSRFTISRDNAKNTLYLQMSSLRTEDTAIYFCAKEKYSSGWSFEYWGQGTLVTVSS VL: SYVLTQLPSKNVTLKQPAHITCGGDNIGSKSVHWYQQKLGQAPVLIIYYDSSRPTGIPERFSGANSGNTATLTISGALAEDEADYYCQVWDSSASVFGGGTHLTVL
// result 3.14e+06
